Tested on: P. falciparum D6 (CQ-sensitive strain)
assay: Antimalarial SYBR Green I-based fluorescence assay, PfD6
Type: cell-based
assayConditions: Plasmodium falciparum, D6, 120 h, read-out: P. falciparum D6 (CQ-sensitive strain) IC50
pIC50: −log10 of the molar value.
reportedProperty: pIC50

1) CCN(CC)CCCC(C)Nc1ccnc2cc(Cl)ccc12 (stereo not shown) [Chloroquine]
7.70

====

System: P. falciparum W2 (CQ-resistant strain)
assay: Antimalarial SYBR Green I-based fluorescence assay, PfW2
Format: cell-based
assayConditions: Plasmodium falciparum, W2; 48-120 h; read-out: IC50 against PfW2
reportedProperty: IC50

1) CCc1c2ccccc2c(CSC(=N)N)c2ccccc12 [NSC 146109]
< 6 µM
2) c1ccc2c(CCNc3ccc(Nc4ccncc4)cc3)c[nH]c2c1 [JNJ 26854165, Serdemetan]
< 6 µM
